# system-tested: recombinant human 5-HT4 receptor (Homo sapiens, UniProt Q13639)
# Construct: expressed in transfected cells
# Sequence (Q13639 whole entry): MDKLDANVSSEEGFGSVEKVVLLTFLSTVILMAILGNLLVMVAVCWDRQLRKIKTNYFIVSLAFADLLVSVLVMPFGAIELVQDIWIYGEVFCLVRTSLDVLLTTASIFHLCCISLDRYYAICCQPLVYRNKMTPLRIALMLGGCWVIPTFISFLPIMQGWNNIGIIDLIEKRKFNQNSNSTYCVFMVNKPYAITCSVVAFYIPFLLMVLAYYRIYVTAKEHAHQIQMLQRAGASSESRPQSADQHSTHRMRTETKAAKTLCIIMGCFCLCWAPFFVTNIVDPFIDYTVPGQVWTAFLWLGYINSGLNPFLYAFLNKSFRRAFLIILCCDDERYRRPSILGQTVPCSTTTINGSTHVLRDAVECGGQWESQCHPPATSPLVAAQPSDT
# protocol-notes: Determination of EC50 values for 5-HT4 receptor (CHO cells, pCRE-Luc reporter)
# Type: cell-based
# measurement-setup: CHO
readout-name: Emax (%)
API: value field is a number in %; no unit string.

>>> result_value("Nc1c(Br)cc(C(=O)NCC2C3CN(CC4CCOCC4)CC23)c2ncccc12 (stereo not shown) [Example 17]")
72
>>> result_value("Nc1c(Cl)cc(C(=O)NCC2CCN(CC3CCOCC3)CC2)c2ncccc12.O=C(O)C(O)C(O)C(=O)O [Example 13]")
70
>>> result_value("Nc1c(F)cc(C(=O)NCC2CCN(CC3CCOCC3)CC2)c2ncccc12 [Example 11]")
77

Now turn to the next compound.
Request: Send back recombinant human 5-HT4 receptor (Homo sapiens, UniProt Q13639) Emax of Nc1c(Cl)cc(C(=O)NCC2C3CN(CC4CCOCC4)CC23)c2ncccc12.O=C(O)C(O)C(O)C(=O)O (stereo not shown) [Example 2] only.
Response: 59

====

# protocol-notes: Rodent pharmacokinetic study
# Format: in vivo, Male wistar rats
# measurement-setup: plasma; Wistar/Male rat, 1 mg/kg intravenous (bolus)
# Excerpt: Male wistar rats (225±25 grams) were used as experimental animals. Three to five animals were housed in each cage. […] At each time point blood was collected through jugular vein and immediately replenish with an equivalent volume of normal saline from freely moving rats. […] The concentrations of the compounds of formula (I) were quantified in plasma by qualified LC-MS/MS method using suitable extraction technique. […]
Quick rule for you: Cmax under 300 ng/mL gets Fulfilled, anything else gets Not fulfilled.

>>> label_value("CC(C)(O)CN1CCC(F)(CNC(=O)c2cc(Cl)c(N)c3cccnc23)CC1.O=C(O)C(O)C(O)C(=O)O [Example 37]")
"Not fulfilled"
>>> label_value("Nc1c(Cl)cc(C(=O)NCC2CCN(CC3CCOCC3)CC2)c2ncccc12.O=C(O)/C=C/C(=O)O [Example 1]")
"Fulfilled"
>>> label_value("Nc1c(Cl)cc(C(=O)NCC2C3CN(CC4CCOCC4)CC23)c2ncccc12.O=C(O)C(O)C(O)C(=O)O (stereo not drawn) [Example 2]")
"Fulfilled"
>>> label_value("Nc1c(Cl)cc(C(=O)NCC2(F)CCN(CC3(O)CCOCC3)CC2)c2ncccc12.O=C(O)C(O)C(O)C(=O)O [Example 27]")
"Not fulfilled"

Request: Does Nc1c(Cl)cc(C(=O)NCC2CCN(CC3CCOCC3)CC2)c2ncccc12.O=C(O)C(O)C(O)C(=O)O [Example 13] have Cmax strictly under 300 ng/mL?
Response: Fulfilled

====

# system-tested: recombinant human 5-HT4 receptor (Homo sapiens)
# Construct: expressed in transfected cells
# protocol-notes: Determination of EC50 values for 5-HT4 receptor (CHO cells, pCRE-Luc reporter)
# Format: cell-based
# measurement-setup: CHO, CHO cells, human 5-HT4 receptor, luciferase reporter; read-out: Emax
readout-name: Emax (%)
API: value field is a number in %; no unit string.

Here are 5 compounds together with their reported answers.
>>> result_value("Nc1c(Cl)cc(C(=O)NC2CCN(CC3(O)CCOCC3)CC2)c2ncccc12 [Example 24]")
81
>>> result_value("Nc1c(Cl)cc(C(=O)NCC2C3CN(CCO)CC23)c2ncccc12 (stereo not drawn) [Example 50]")
72
>>> result_value("Nc1c(Cl)cc(C(=O)NCC2CCN(CC3CCOCC3)CC2)c2ncccc12.O=C(O)/C=C/C(=O)O [Example 1]")
76
>>> result_value("Nc1c(Cl)cc(C(=O)NCC2C3CN(CCCO)CC23)c2ncccc12 (stereo not drawn) [Example 51]")
85
>>> result_value("CC(C)(F)CN1CCC(F)(CNC(=O)c2cc(Cl)c(N)c3cccnc23)CC1 [Example 48]")
84

Request: Output measured Emax for this item: Nc1c(Cl)cc(C(=O)NCC2C3CN(CC4CCOC4)CC23)c2ncccc12 (stereo not drawn) [Example 7]
Response: 71
